Data provenance: the Kinase Knowledgebase extract (Sharma et al. 2016)

Molecular target: PIK3CD (Human) (UniProt O00329)
Sequence (O00329 whole entry, looked up): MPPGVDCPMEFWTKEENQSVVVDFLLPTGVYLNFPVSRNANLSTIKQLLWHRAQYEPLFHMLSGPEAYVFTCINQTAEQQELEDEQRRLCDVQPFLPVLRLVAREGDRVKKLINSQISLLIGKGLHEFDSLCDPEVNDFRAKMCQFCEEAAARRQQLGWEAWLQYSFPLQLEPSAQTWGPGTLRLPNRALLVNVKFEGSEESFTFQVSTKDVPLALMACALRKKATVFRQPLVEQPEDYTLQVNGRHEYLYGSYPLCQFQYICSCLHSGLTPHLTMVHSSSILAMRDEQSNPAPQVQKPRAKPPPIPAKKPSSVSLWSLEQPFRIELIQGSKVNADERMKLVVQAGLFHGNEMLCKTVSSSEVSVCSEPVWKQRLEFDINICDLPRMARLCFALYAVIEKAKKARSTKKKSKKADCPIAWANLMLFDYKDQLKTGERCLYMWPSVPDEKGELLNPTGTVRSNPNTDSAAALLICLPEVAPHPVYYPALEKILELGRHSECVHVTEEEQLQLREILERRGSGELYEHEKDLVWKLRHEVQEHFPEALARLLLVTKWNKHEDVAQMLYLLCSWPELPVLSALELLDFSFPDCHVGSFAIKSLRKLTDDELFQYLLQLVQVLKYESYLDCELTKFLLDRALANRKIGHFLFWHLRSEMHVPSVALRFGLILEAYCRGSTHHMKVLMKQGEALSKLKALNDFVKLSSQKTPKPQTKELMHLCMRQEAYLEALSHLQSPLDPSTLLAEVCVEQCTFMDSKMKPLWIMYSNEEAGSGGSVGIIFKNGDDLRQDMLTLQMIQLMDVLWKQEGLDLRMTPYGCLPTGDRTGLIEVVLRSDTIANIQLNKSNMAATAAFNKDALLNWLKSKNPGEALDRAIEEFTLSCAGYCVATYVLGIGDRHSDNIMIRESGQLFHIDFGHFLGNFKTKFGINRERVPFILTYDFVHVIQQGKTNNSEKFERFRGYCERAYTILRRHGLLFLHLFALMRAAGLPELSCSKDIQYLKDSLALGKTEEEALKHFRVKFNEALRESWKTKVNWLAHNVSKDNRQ
Assay: Cell-Based Assay
Details: raji
Assay readout: IC50

Query: Give IC50 for C[C@H](NC(=O)c1c(N)nn2cccnc12)c1cc2cccc(C#CC(F)(F)F)c2c(=O)n1-c1ccccc1
Reply: 500 to 1000 nM

Query: Give IC50 for C#Cc1cccc2nc([C@H](C)NC(=O)c3c(N)nn4cccnc34)n(-c3ccc(F)cc3)c(=O)c12
Reply: 1 to 100 nM

Query: Give IC50 for C[C@H](NC(=O)c1c(N)nn2cccnc12)c1cc2cccc(C#CCN3CCOCC3)c2c(=O)n1-c1ccccc1
Reply: 1000 to 10000 nM

Query: Give IC50 for C[C@H](NC(=O)c1c(N)nn2cccnc12)c1cc2cccc(C#CC3(O)CN4CCC3CC4)c2c(=O)n1-c1ccccc1 (stereo partly drawn)
Reply: 1000 to 10000 nM

Query: Give IC50 for Cc1ncsc1C#Cc1cccc2cc([C@H](C)NC(=O)c3c(N)nn4cccnc34)n(-c3ccccc3)c(=O)c12
Reply: 1000 to 10000 nM

Query: Give IC50 for C[C@H](NC(=O)c1c(N)nn2cccnc12)c1cc2cccc(C#Cc3cnn(C)c3)c2c(=O)n1C1CC1
Reply: 100 to 500 nM

Query: Give IC50 for C[C@H](NC(=O)c1c(N)nn2cccnc12)c1nc2cccc(C#Cc3cnn(C)c3)c2c(=O)n1-c1ccccc1
Reply: 100 to 500 nM

Query: Give IC50 for C[C@H](NC(=O)c1c(N)nn2cccnc12)c1cc2cccc(C#Cc3cocn3)c2c(=O)n1-c1ccccc1
Reply: 100 to 500 nM

Query: Give IC50 for C[C@H](NC(=O)c1cnn2cccnc12)c1cc2cccc(C#Cc3cnn(C)c3)c2c(=O)n1-c1ccccc1
Reply: 1000 to 10000 nM

Query: Give IC50 for Cc1ncc(C#Cc2cccc3cc([C@H](C)NC(=O)c4c(N)nn5cccnc45)n(-c4ccccc4)c(=O)c23)s1
Reply: 100 to 500 nM

Query: Give IC50 for C[C@H](NC(=O)c1c(N)nn2cccnc12)c1cc2cccc(C#CC=O)c2c(=O)n1-c1ccccc1
Reply: 100 to 500 nM

Query: Give IC50 for C[C@H](NC(=O)c1c(N)nn2cccnc12)c1cc2cccc(C#CC3CCNCC3)c2c(=O)n1-c1ccccc1
Reply: 1000 to 10000 nM

Query: Give IC50 for C[C@H](NC(=O)c1nccnc1N)c1cc2cccc(C#Cc3cnn(C)c3)c2c(=O)n1-c1ccccc1
Reply: 1 to 100 nM

Query: Give IC50 for CC#Cc1cccc2cc(C(C)NC(=O)c3c(N)nn4cccnc34)c(-c3ccccc3)nc12 (stereo not drawn)
Reply: 1 to 100 nM

Query: Give IC50 for C[C@H](NC(=O)c1c(N)nn2cccnc12)c1cc2cccc(C#Cc3ccc(=O)n(C)c3)c2c(=O)n1-c1ccccc1
Reply: 100 to 500 nM

Query: Give IC50 for C[C@H](NC(=O)c1c(N)nn2cccnc12)c1cc2cccc(CC(=O)c3cn[nH]c3)c2c(=O)n1-c1ccccc1
Reply: 100 to 500 nM

Query: Give IC50 for CCOC(C#Cc1cccc2cc([C@H](C)NC(=O)c3c(N)nn4cccnc34)n(-c3ccccc3)c(=O)c12)OCC
Reply: 500 to 1000 nM

Query: Give IC50 for C[C@H](NC(=O)c1c(N)nn2cccnc12)c1cc2ccc3ccccc3c2c(=O)n1-c1ccccc1
Reply: 1000 to 10000 nM
